Taken from PubChem BioAssay (NCATS).

- Experiment: Viability qHTS for spleen associated tyrosine kinase inhibitor (SYKi) drug resistant MV4-11 cells (AID 1963824); also: nearly all actives have a fitted effect of over 35% in size
- Setup Conditions: SYKi-resistant MV4-11 viability, CellTiter-Glo, 72 h; series mostly up to 45 µM
Records with an inconclusive call do not appear. Active and inactive are the calls of the source. Calls follow the shape of the dose curve; as a rule, active = well fitted cell-killing curve with a large enough effect; inconclusive = small, poorly fitted or top-dose-only effect, or effect the other way; inactive = no such curve, though single readings can be large or run the other way.
Outcomes: Yes (active), No (inactive)

>>> group_label("CN1[C@@H]2CC[C@H]1CC(OC(=O)c1cc(Cl)cc(Cl)c1)C2 (some centres undefined)")
"No"
>>> group_label("O=C(N/N=C/c1ccc([N+](=O)[O-])o1)c1cc([N+](=O)[O-])cc([N+](=O)[O-])c1O")
"No"
>>> group_label("C[C@H]1CNCCc2ccc(Cl)cc21")
"No"
>>> group_label("CC(C)(O)/C=C\\C(=O)[C@](C)(O)[C@H]1[C@H](O)C[C@]2(C)[C@@H]3CC=C4[C@@H](C=C(O)C(=O)C4(C)C)[C@]3(C)C(=O)C[C@@]12C")
"Yes"
>>> group_label("CC(=O)C1CCOC1=O (centres undefined)")
"No"
>>> group_label("CN1Cc2c(ccc3c2OCO3)[C@@H]2[C@H]1c1cc3c(cc1C[C@@H]2O)OCO3")
"Yes"
>>> group_label("CC(=O)O[C@H]1C(=O)[C@]2(C)C(O)C[C@H]3OC[C@@]3(OC(C)=O)[C@H]2[C@H](OC(=O)c2ccccc2)[C@]2(O)C[C@H](O)C(C)=C1C2(C)C (some centres undefined)")
"Yes"
>>> group_label("CC(C)=CCC[C@]1(C)C=Cc2c(O)c3c(c(CC=C(C)C)c2O1)O[C@]12C(=C[C@@H]4CC1C(C)(C)O[C@@]2(C/C=C(/C)C(=O)O)C4=O)C3=O")
"Yes"
>>> group_label("COCCOCCO")
"No"

----------
- Experiment: Quantitative highthroughput screen to assess conditional lethalithy of SEM cells grown in Human Plasma-Like Medium with dialyzed fetal bovine serum (HPLM+ds) (AID 1963882); also: nearly all actives have a fitted effect of over 35% in size
- Setup Conditions: SEM B-ALL cells in HPLM+ds, CellTiter-Glo viability, 48 h; series mostly up to 45.8 µM
Results filed as inconclusive are left out. Calls of active or inactive are those of the source. Calls follow the shape of the dose curve; as a rule, active = well fitted cell-killing curve with a large enough effect; inconclusive = small, poorly fitted or top-dose-only effect, or effect the other way; inactive = no such curve, though single readings can be large or run the other way.
Outcomes: Y = active, N = inactive

>>> group_label("CN[C@@H]1Cc2cccc3[nH]c(=O)n(c23)C1")
"N"
>>> group_label("CCN(CC)C(=O)c1ccc(C2=CC3(CCNCC3)Oc3cccc(O)c32)cc1")
"N"
>>> group_label("COc1cccc2c1[C@]13CCN(CC4CC4)[C@H](C2)[C@]1(OC)CCC(=O)C3")
"N"
>>> group_label("COC1(CS(=O)c2ccccc2)CCN(CCc2c[nH]c3ccc(F)cc23)CC1 (configuration not stated)")
"N"
>>> group_label("CN(C)CCc1ccc(O)cc1")
"N"
>>> group_label("C[C@@H]1C[C@@H]([C@H](O)CC2CC(=O)NC(=O)C2)C(=O)[C@@H](C)C1")
"Y"
>>> group_label("C[C@](O)(CS(=O)(=O)c1ccc(F)cc1)C(=O)Nc1ccc(C#N)c(C(F)(F)F)c1")
"N"
>>> group_label("O=C(Oc1ccc([N+](=O)[O-])cc1)N1CCN(Cc2cccc(Oc3ccccc3)c2)CC1")
"N"
>>> group_label("COc1cc(C(=O)N2CC[C@@H](O)[C@@H](N)C2)cc2nc(-c3cc4ccccc4n3CC3CC3)n(C)c12")
"Y"
>>> group_label("COc1ccc2c(c1OC)CN1CCc3cc4c(cc3C1C2)OCO4 (configuration not stated)")
"Y"
>>> group_label("C[C@]12COC(=O)C[C@@H]1CC[C@@H]1[C@H]2CC[C@@]2(C)[C@H]1CC[C@]2(C)O")
"N"
>>> group_label("Cc1cc(SCc2sc(-c3ccc(C(F)(F)F)c(F)c3)nc2C)ccc1OCC(=O)O")
"N"
>>> group_label("CN(C)CCN(C)CCc1ccc(Cl)c(Cl)c1")
"N"
>>> group_label("C[C@@H]1CC[C@@]2(OC1)O[C@H]1C[C@H]3[C@@H]4CC=C5C[C@@H](O[C@@H]6O[C@H](CO)[C@@H](O[C@@H]7O[C@@H](C)[C@H](O)[C@@H](O)[C@@H]7O)[C@H](O)[C@@H]6O[C@@H]6O[C@@H](C)[C@H](O)[C@@H](O)[C@@H]6O)CC[C@]5(C)[C@@H]4CC[C@]3(C)[C@@H]1[C@H]2C")
"Y"
>>> group_label("CN(C)[C@@H]1C(=O)C(C(N)=O)=C(O)[C@@]2(O)C(=O)C3=C(O)c4c(O)cccc4[C@@](C)(O)[C@H]3[C@H](O)[C@@H]12")
"N"
>>> group_label("CNC(=O)N1N=C(c2ccc(N)cc2)c2cc3c(cc2CC1C)OCO3 (configuration not stated)")
"Y"
>>> group_label("CCCCCC[C@H]1C(=O)O[C@H](C)[C@H](NC(=O)c2cccc(NC=O)c2O)C(=O)O[C@@H](C)[C@@H]1OC(=O)CC(C)C")
"N"
